- System: MOLM14;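 also: after 48 h exposure read by CellTiter-Glo luminescence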
- Test Method Notes: cell viability relative to vehicle control; higher = less cytotoxic
- Condition: 10 µM; SRSF2 genotype: SRSF2 P95H/wt
Binary label based on cell viability with cut-off 80%: below gives yes (1), not below gives no (0).

C=C[C@H]1CN2CC[C@]3(C(=O)Nc4ccccc43)[C@@H]2C[C@@H]1/C(=C\OC)C(=O)OC    no (0)
CCOC(=O)Nc1ccc(NCc2ccc(F)cc2)cc1N    no (0)
C[C@]12CC[C@H](O)CC1=CC[C@@H]1[C@@H]2CC[C@]2(C)C(=O)CC[C@@H]12 [Dehydroepiandrosterone (DHEA)]    no (0)

Prompt line: I wonder whether CN1C2CCC1CC(O)C2 (stereo not given) has cell viability below 80%. Can you tell?
Response line: no (0)

Prompt line: Is it true that cell viability reported for `CCC1=C[C@H]2CN3CCc4c([nH]c5ccccc45)[C@](C(=O)OC)(C2)[C@H]13` is less than 80%?
Response line: no (0)
